Test system: Calvarial osteoblast
assayText: Anabolic activity in rat calvarial osteoblasts assessed as induction of alkaline phosphatase activity at 1 uM after 48 hrs in presence of beta-glycerophosphate and ascorbic acid by p-nitrophenyl phosphate substrate based assay (reference value: 1 to 1.21)
Format: functional
Exercise: state measured OD for each of the molecules provided.
Quick one: just the number, no unit, thanks!

input: Suppose we examine the molecule CCOC(=O)C1=C(C)NC2=C(C(=O)CCC2)C1c1cc(C(C)CC)c2oc(C(=O)c3ccc(C)cc3)cc2c1 (stereo not drawn) ; what OD value has been reported?
output: 1.16

input: Suppose we examine the molecule CCC(C)c1cc(C2C(C(=O)OC)=C(C)NC3=C2C(=O)CCC3)cc2cc(C(=O)c3ccc(Cl)cc3)oc12 (stereo not drawn) ; what OD value has been reported?
output: 1.31

input: Suppose we examine the molecule CCOC(=O)C1=C(C)NC2=C(C(=O)CCC2)C1c1cc(C(C)(C)C)c2oc(C(=O)c3ccc(OC)cc3)cc2c1 (stereo not drawn) ; what OD value has been reported?
output: 1.77

----------
Test system: Calvarial osteoblast
assayText: Anabolic activity in rat calvarial osteoblasts assessed as induction of alkaline phosphatase activity at 1 uM after 48 hrs in presence of beta-glycerophosphate and ascorbic acid by p-nitrophenyl phosphate substrate based assay (reference value: 1 to 1.21)
Format: functional
Tick yes if OD is 1 or greater. Tick no if OD is less than 1.

input: Form field: OD at least 1? Entry: CCC(C)c1cc(C=O)cc2cc(C(=O)c3ccc(OC)cc3)oc12 (configuration not stated)
output: yes

input: Form field: OD at least 1? Entry: CCC(C)c1cc(C2C(C(=O)OC)=C(C)NC3=C2C(=O)CC(C)(C)C3)cc2cc(C(=O)c3ccc(C)cc3)oc12 (configuration not stated)
output: yes

input: Form field: OD at least 1? Entry: CCC(C)c1cc(C=O)cc2cc(C(=O)c3ccc([N+](=O)[O-])cc3)oc12 (configuration not stated)
output: yes

input: Form field: OD at least 1? Entry: CCC(C)c1cc(C2C(C(=O)OC)=C(C)NC3=C2C(=O)CCC3)cc2cc(C(=O)c3ccc([N+](=O)[O-])cc3)oc12 (configuration not stated)
output: no

input: Form field: OD at least 1? Entry: CCC(C)c1cc(C2C(C(=O)OC)=C(C)NC3=C2C(=O)CC(C)(C)C3)cc2cc(C(=O)c3ccc([N+](=O)[O-])cc3)oc12 (configuration not stated)
output: no

input: Form field: OD at least 1? Entry: CCC(C)c1cc(C2C(C(=O)OC)=C(C)NC3=C2C(=O)CCC3)cc2cc(C(=O)c3ccc(C)cc3)oc12 (configuration not stated)
output: no

input: Form field: OD at least 1? Entry: CCOC(=O)C1=C(C)NC2=C(C(=O)CC(C)(C)C2)C1c1ccccc1 (configuration not stated)
output: yes

input: Form field: OD at least 1? Entry: CCOC(=O)C1=C(C)NC2=C(C(=O)CC(C)(C)C2)C1c1cc(C(C)(C)C)c2oc(C(=O)c3ccc(OC)cc3)cc2c1 (configuration not stated)
output: yes

input: Form field: OD at least 1? Entry: CCOC(=O)C1=C(C)NC2=C(C(=O)CCC2)C1c1cc(CC)c2oc(C(=O)c3ccc(OC)cc3)cc2c1 (configuration not stated)
output: yes

input: Form field: OD at least 1? Entry: CCc1cc(C=O)cc2cc(C(=O)c3ccc(OC)cc3)oc12
output: yes

input: Form field: OD at least 1? Entry: CCOC(=O)C1=C(C)NC2=C(C(=O)CC(C)(C)C2)C1c1cc(CC)c2oc(C(=O)c3ccc(OC)cc3)cc2c1 (configuration not stated)
output: yes

input: Form field: OD at least 1? Entry: COc1ccc(C(=O)c2cc3cc(C=O)cc(C(C)(C)C)c3o2)cc1
output: yes

input: Form field: OD at least 1? Entry: CCOC(=O)C1=C(C)NC2=C(C(=O)CCC2)C1c1cc(C(C)CC)c2oc(C(=O)c3ccc(Cl)cc3)cc2c1 (configuration not stated)
output: no

input: Form field: OD at least 1? Entry: CCC(C)c1cc(C2C(C(=O)OC)=C(C)NC3=C2C(=O)CC(C)(C)C3)cc2cc(C(=O)c3ccc(Cl)cc3)oc12 (configuration not stated)
output: no

input: Form field: OD at least 1? Entry: CCC(C)c1cc(C2C(C(=O)OC)=C(C)NC3=C2C(=O)CCC3)cc2cc(C(=O)c3ccc(OC)cc3)oc12 (configuration not stated)
output: yes

input: Form field: OD at least 1? Entry: COC(=O)C1=C(C)NC2=C(C(=O)CCC2)C1c1cc(C(C)(C)C)c2oc(C(=O)c3ccc(OC)cc3)cc2c1 (configuration not stated)
output: yes

input: Form field: OD at least 1? Entry: CCC(C)c1cc(C=O)cc2cc(C(=O)c3ccc(Cl)cc3)oc12 (configuration not stated)
output: no

----------
System: Calvarial osteoblast
assayText: Anabolic activity in rat calvarial osteoblasts assessed as induction of alkaline phosphatase activity at 1 uM after 48 hrs in presence of beta-glycerophosphate and ascorbic acid by p-nitrophenyl phosphate substrate based assay (reference value: 1 to 1.21)
Assay type: functional
Exercise: state measured OD for each of the compounds provided.
Quick one: just the number, no unit, thanks!

input: Suppose we examine the compound CCc1cc(C2C(C(=O)OC)=C(C)NC3=C2C(=O)CC(C)(C)C3)cc2cc(C(=O)c3ccc(OC)cc3)oc12 (centres undefined) ; what OD value has been reported?
output: 1.2

input: Suppose we examine the compound CCOC(=O)C1=C(C)NC2=C(C(=O)CCC2)C1c1ccccc1 (centres undefined) ; what OD value has been reported?
output: 1.44

input: Suppose we examine the compound CCOC(=O)C1=C(C)NC2=C(C(=O)CCC2)C1c1cc(C(C)CC)c2oc(C(=O)c3ccc([N+](=O)[O-])cc3)cc2c1 (centres undefined) ; what OD value has been reported?
output: 0.69

input: Suppose we examine the compound CCC(C)c1cc(C2C(C(=O)OC)=C(C)NC3=C2C(=O)CC(C)(C)C3)cc2cc(C(=O)c3ccc(OC)cc3)oc12 (centres undefined) ; what OD value has been reported?
output: 1.26

Where do these numbers come from? They come from ChEMBL document CHEMBL4177648.
